species: Rattus norvegicus; assay: Open TG-GATES - Regimen: Daily Repeat; type: toxicity, organism-based, Sprague-Dawley; design: regimen Daily Repeat, gender Male, age 6 weeks; conditions: in vivo, po, 0 mg/kg, […], tissue Kidney, route gavage, dose level Control, time 28 day
Field: KIDNEY_TOTAL. Provide a value for each of the compounds that follow.
Give bare numbers, in g.

Reference set (5 entries):
Lookup result for `CCOc1ccc(NC(C)=O)cc1` ; measured KIDNEY_TOTAL: 2.7

Summary for this compound, `CN/C(=N/CCSCc1nc[nH]c1C)NC#N` : KIDNEY_TOTAL is 2.9

Entry under test: CN(C)CCC(c1ccc(Cl)cc1)c1ccccn1 (stereo not given) . Its KIDNEY_TOTAL was 2.8

Looking up `Brc1ccccc1` , I found its KIDNEY_TOTAL recorded as 2.6

The measured KIDNEY_TOTAL associated with `CNC(=C[N+](=O)[O-])NCCSCc1ccc(CN(C)C)o1` reads 2.9

Below are some compounds; for each one, tell me its KIDNEY_TOTAL.
1. CC(C)NNC(=O)c1ccncc1
2. CN1C(=O)CCS(=O)(=O)C1c1ccc(Cl)cc1 (stereo not given)
3. Cc1nnc2n1-c1ccc(Cl)cc1C(c1ccccc1Cl)=NC2
4. O=C(OC[C@H]1O[C@@H](OC(=O)c2cc(O)c(O)c(OC(=O)c3cc(O)c(O)c(O)c3)c2)[C@H](OC(=O)c2cc(O)c(O)c(OC(=O)c3cc(O)c(O)c(O)c3)c2)[C@@H](OC(=O)c2cc(O)c(O)c(OC(=O)c3cc(O)c(O)c(O)c3)c2)[C@@H]1OC(=O)c1cc(O)c(O)c(OC(=O)c2cc(O)c(O)c(O)c2)c1)c1cc(O)c(O)c(OC(=O)c2cc(O)c(O)c(O)c2)c1
5. NC1=NC(=O)C(c2ccccc2)O1 (stereo not given)

1: 2.8; 2: 2.7; 3: 2.7; 4: 2.7; 5: 2.9

---

Answer each item with its documented MCHC.
species: Rattus norvegicus; assay: Open TG-GATES - Regimen: Single; type: toxicity, organism-based, Sprague-Dawley; parameters: regimen Single, gender Male, age 6 weeks; details: in vivo, po, 0 mg/kg, 6 h, tissue Blood, route gavage, dose level Control
Numbers only, in %.

Known MCHC results, listed for orientation:
The compound listed as O=C(OC[C@H]1O[C@@H](OC(=O)c2cc(O)c(O)c(OC(=O)c3cc(O)c(O)c(O)c3)c2)[C@H](OC(=O)c2cc(O)c(O)c(OC(=O)c3cc(O)c(O)c(O)c3)c2)[C@@H](OC(=O)c2cc(O)c(O)c(OC(=O)c3cc(O)c(O)c(O)c3)c2)[C@@H]1OC(=O)c1cc(O)c(O)c(OC(=O)c2cc(O)c(O)c(O)c2)c1)c1cc(O)c(O)c(OC(=O)c2cc(O)c(O)c(O)c2)c1 [TANNIC ACID] shows MCHC equal to 33.6

Summary for this compound, Cc1nnc2n1-c1ccc(Cl)cc1C(c1ccccc1Cl)=NC2 [TRIAZOLAM] : MCHC is 33

Lab note: Nc1c2c(nc3ccccc13)CCCC2 [TACRINE] gave MCHC of 34.5

Briefly, MCHC measured for NC1=NC(=O)C(c2ccccc2)O1 (stereo not drawn) [PEMOLINE] : 34.1

The compound listed as CCOc1ccc(NC(C)=O)cc1 [PHENACETIN] shows MCHC equal to 33.4

Value of measured MCHC for the entry CCCc1cc(=O)[nH]c(=S)[nH]1 [PROPYLTHIOURACIL] : 33.1

GET /value?item= COC(=O)C1=C(C)NC(C)=C(C(=O)OC)C1c1ccccc1[N+](=O)[O-] [NIFEDIPINE] &field=MCHC returns 32

Then there is this compound:
Memo: CNC(=C[N+](=O)[O-])NCCSCc1ccc(CN(C)C)o1 [RANITIDINE] , reported MCHC: 35
